Provide the recorded IC50 for the entries that follow.
molecular target: AKT1 E17K (Homo sapiens (Human), UniProt P31749, E17K); experiment: Live cell target engagement (NanoBRET) in HEK293 cells; type: cell-based; conditions: HEK293, 2 hours at 37° C.
Sequence (P31749 whole entry E17K): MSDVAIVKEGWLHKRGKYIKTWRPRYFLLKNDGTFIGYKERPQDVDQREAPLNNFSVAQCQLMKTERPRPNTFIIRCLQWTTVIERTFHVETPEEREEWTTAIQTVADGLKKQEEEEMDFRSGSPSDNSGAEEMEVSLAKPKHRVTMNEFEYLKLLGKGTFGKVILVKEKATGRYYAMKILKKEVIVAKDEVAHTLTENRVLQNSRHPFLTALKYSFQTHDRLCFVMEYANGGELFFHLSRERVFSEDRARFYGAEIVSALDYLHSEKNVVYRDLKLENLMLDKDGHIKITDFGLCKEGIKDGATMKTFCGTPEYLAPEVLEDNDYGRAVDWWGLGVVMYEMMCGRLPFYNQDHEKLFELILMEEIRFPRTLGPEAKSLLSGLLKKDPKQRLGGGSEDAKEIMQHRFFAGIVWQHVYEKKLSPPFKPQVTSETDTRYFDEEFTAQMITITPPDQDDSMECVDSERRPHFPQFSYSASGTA

Recorded IC50, per entry:
Nc1ncccc1-c1nc2ccc(-c3ccccc3)nc2n1-c1ccc(CNCCCc2ccc(C=O)c(O)c2)cc1    < 100 nM
CC(=O)Nc1cc(CC(=O)NCc2ccc(-n3c(-c4cccnc4N)nc4cccnc43)cc2)ccc1C=O    < 100 nM
Nc1ncccc1-c1nc2ccc(-c3ccccc3)nc2n1-c1ccc(CNC(=O)c2cc(F)c(O)c(C=O)c2)cc1    < 100 nM
Nc1ncccc1-c1nc2ccc(-c3ccccc3)nc2n1-c1ccc(C(=O)NCC#Cc2ccc(C=O)c(O)c2)cc1    > 500 nM

For each of the compounds below, state IC50.
1. Nc1ncccc1-c1nc2ccc(-c3ccccc3)nc2n1-c1ccc(NC(=O)Cc2ccc(O)c(C=O)c2)cc1
2. CC(=O)Nc1cccc(-c2ccc3nc(-c4cccnc4N)n(-c4ccc(CNCCc5ccc(C=O)c(O)c5F)cc4)c3n2)c1
3. Nc1ncccc1-c1nc2ccc(-c3ccccc3)nc2n1-c1ccc(NC(=O)CCc2ccc(C=O)c(O)c2)cc1

1: < 100 nM; 2: 100 to 500 nM; 3: < 100 nM

* * *

molecular target: UniProtKB P31749; assay: Live cell target engagement (NanoBRET) in HEK293 cells; format: cell-based; conditions: HEK293, 2 hours at 37° C.
ENDPOINT LABEL: IC50

Recorded IC50, per entry:
Nc1ncccc1-c1nc2ccc(-c3ccccc3)nc2n1-c1ccc(C(=O)NCCc2ccc(C=O)c(O)c2)cc1    < 100 nM
Nc1ncccc1-c1nc2ccc(-c3ccccc3)nc2n1-c1ccc(CNC(=O)Cc2cnc(C=O)c(O)c2)cc1    100 to 500 nM

For each of the compounds below, state IC50.
1. COc1cc(CCNCc2ccc(-n3c(-c4cccnc4N)nc4ccc(-c5ccccc5)nc43)cc2)ccc1C=O
2. Nc1ncccc1-c1nc2ccc(N3CCOCC3)nc2n1-c1ccc(CNC(=O)c2ccc(O)c(C=O)c2)cc1
3. CC(C)(O)C#Cc1ccc2nc(-c3cccnc3N)n(-c3ccc(CNC(=O)Cc4ccc(C=O)c(O)c4)cc3)c2n1
4. CN(CCc1ccc(-n2c(-c3cccnc3N)nc3ccc(-c4ccccc4)nc32)cc1)Cc1ccc(C=O)c(O)c1
5. Nc1ncccc1-c1nc2ccc(-c3cccnc3)nc2n1-c1ccc(CNC(=O)Cc2ccc(C=O)c(O)c2)cc1

1: < 100 nM; 2: 100 to 500 nM; 3: 100 to 500 nM; 4: 100 to 500 nM; 5: < 100 nM

* * *

molecular target: AKT1 WT (Homo sapiens (Human), UniProt P31749); assay: Live cell target engagement (NanoBRET) in HEK293 cells; assay type: cell-based; conditions: HEK293, 2 hours at 37° C.
Sequence (P31749 whole entry): as the sequence (P31749 whole entry E17K) above, with K17E counted along it
ENDPOINT LABEL: IC50

Recorded IC50, per entry:
Nc1ncccc1-c1nc2ccc(C3CC3)nc2n1-c1ccc(CNC(=O)Cc2ccc(C=O)c(O)c2Cl)cc1    < 100 nM
Nc1ncccc1-c1nc2ccc(-c3ccccc3)nc2n1-c1ccc(CNC(=O)c2cc(F)c(O)c(C=O)c2)cc1    < 100 nM

For each of the compounds below, state IC50.
1. Nc1ncccc1-c1nc2ccc(-c3ccccc3)nc2n1-c1ccc(CC(=O)NCc2ccc(C=O)c(O)c2)cc1
2. Nc1ncccc1-c1nc2ccc(-c3ccccc3)nc2n1-c1ccc(CNCCc2ccc(O)c(C=O)c2)cc1
3. Nc1ncccc1-c1nc2ccc(C3CC3)nc2n1-c1ccc(CNC(=O)C(F)c2ccc(C=O)c(O)c2)cc1 (centres unmarked)
4. CC(=O)N(C)C1CCN(c2cccc(-c3ccc4nc(-c5cccnc5N)n(-c5ccc(CNCCc6ccc(C=O)c(O)c6)cc5)c4n3)c2)CC1
5. Nc1ncccc1-c1nc2ccc(-c3ccccc3)nc2n1-c1ccc(C(=O)NCCc2ccc(C=O)c(O)c2)cn1
6. Nc1ncccc1-c1nc2ccc(-c3ccccc3)nc2n1-c1ccc(NC(=O)Cc2ccc(O)c(C=O)c2)cc1
7. Nc1ncccc1-c1nc2ccc(-c3ccccc3)nc2n1-c1ccc(CNCCCc2ccc(O)c(C=O)c2)cc1
8. Nc1ncccc1-c1nc2ccc(-c3ccccc3)nc2n1-c1ccc(CNC(=O)C2(c3ccc(C=O)c(O)c3)CC2)cc1

1. < 100 nM
2. < 100 nM
3. < 100 nM
4. < 100 nM
5. > 500 nM
6. < 100 nM
7. < 100 nM
8. > 500 nM

For each of the compounds below, state IC50.
1. Nc1ncccc1-c1nc2ccc(-c3ccccc3)nc2n1-c1ccc(NC(=O)CCc2ccc(C=O)c(O)c2)cc1
2. Nc1ncccc1-c1nc2ccc(N3CCOCC3)nc2n1-c1ccc(C2(NC(=O)Cc3ccc(C=O)c(O)c3F)CC2)cc1
3. CC(=O)Nc1cccc(-c2ccc3nc(-c4cccnc4N)n(-c4ccc(CNC(=O)Cc5ccc(C=O)c(O)c5)cc4)c3n2)c1
4. Nc1ncccc1-c1nc2ccc(-c3ccncc3)nc2n1-c1ccc(CNCCc2ccc(C=O)c(O)c2)cc1
5. Nc1ncccc1-c1nc2ccc(-c3ccccc3)nc2n1-c1ccc(CNc2cc(-c3ccc(C=O)c(O)c3)ccn2)cc1

< 100 nM
< 100 nM
100 to 500 nM
100 to 500 nM
> 500 nM

For each of the compounds below, state IC50.
1. Nc1ncccc1-c1nc2ccc(-c3ccnc(N4CCOCC4)c3)nc2n1-c1ccc(CNC(=O)Cc2ccc(C=O)c(O)c2)cc1
2. Nc1ncccc1-c1nc2ccc(-c3cccnc3)nc2n1-c1ccc(CNC(=O)Cc2ccc(C=O)c(O)c2F)cc1

1: 100 to 500 nM; 2: < 100 nM
